Experiment: Metabolic stability in human liver microsomes assessed as half life
Format: ADME, Microsome

- smiles string: "CCc1nn(CCO)c(CC)c1Cc1cc(Cl)cc(Cl)c1"
  half-life / min: 18
- smiles string: "Cc1c(Cc2cc(Cl)cc(Cl)c2)c(C(F)(F)F)nn1CCO"
  half-life / min: 79
- smiles string: "Cc1nn(CCO)c(C(C)C)c1Cc1cc(Cl)cc(Cl)c1"
  half-life / min: 4
- smiles string: "Cc1c(Cc2cc(Cl)cc(Cl)c2)c(C(C)C)nn1CCO"
  half-life / min: 50
- smiles string: "Cc1nn(CCO)c(C)c1Cc1cc(Cl)cc(Cl)c1"
  half-life / min: 39
- smiles string: "CCc1nn(CCO)c(C(F)(F)F)c1Cc1cc(Cl)cc(Cl)c1"
  half-life / min: 32
